Target: T1, ZFP SBS#1240 (synthetic, UniProt P08047)
T1 chain: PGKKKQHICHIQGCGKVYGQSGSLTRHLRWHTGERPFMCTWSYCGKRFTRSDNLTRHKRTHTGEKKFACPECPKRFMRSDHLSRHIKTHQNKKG
Experiment: EMSA
Conditions: tags: MBP fusion
Readout Kind: Kd
Put down the number, then write its unit next to it.

Form field: reported Kd of GGGGAGGCA (dsDNA) DNA 1: GGGGAGGCA DNA 2: TGCCTCCCC
0.056 nM
